target: UniProt:Q15717; test: Inhibition of COX2 DNA binding to HuR; details: replicate n1, read-out: IC50, n1
Result Type: log10 of IC50 (log10 of the value in nM)
Heads up: the numbers are on a log10 scale; they represent IC50 in nM.

## Task Note down log10 of IC50 recorded for Cc1cccc2c3c(ccc12)C1=C(C(=O)C3=O)[C@@H](C)CO1 [DHTS]
## Result 3.03

## Task Note down log10 of IC50 recorded for CC(=O)O[C@H]1C(=O)[C@@]2(C)[C@H]([C@H](OC(=O)c3ccccc3)[C@]3(O)C[C@H](OC(=O)[C@H](O)[C@@H](NC(=O)c4ccccc4)c4ccccc4)C(C)=C1C3(C)C)[C@]1(OC(C)=O)CO[C@@H]1C[C@@H]2O [Paclitaxel]
## Result 3.35

## Task Note down log10 of IC50 recorded for Cc1occ2c1C(=O)c1c(O)ccc(O)c1C2 [MS444]
## Result 1.52

## Task Note down log10 of IC50 recorded for Cc1cc(/C=C/c2ccc3cc(N(C)C)ccc3[n+]2C)c(C)n1-c1ccccc1 [PP, pyrvinium pamoate]
## Result 2.53

## Task Note down log10 of IC50 recorded for COc1ccc(C(CC(=O)N2CCCC2)c2c(OC)cc(OC)c3c(-c4ccccc4)cc(=O)oc23)cc1 (stereo not shown) [CMLD2]
## Result 2.77

* * *

biological target: VEGF DNA binding to HuR (Homo sapiens, UniProt Q15717); experiment: Inhibition of VEGF DNA binding to HuR; details: mean of n1 and n2
Result Type: Mean Max % I (%)
Your answer should be a plain number; it is taken to be in %.

## Task Note down Mean Max % I recorded for Cc1cccc2c3c(ccc12)C1=C(C(=O)C3=O)[C@@H](C)CO1
## Result 92.9

## Task Note down Mean Max % I recorded for Cc1occ2c1C(=O)c1c(O)ccc(O)c1C2
## Result 99.8

## Task Note down Mean Max % I recorded for Cc1cc(/C=C/c2ccc3cc(N(C)C)ccc3[n+]2C)c(C)n1-c1ccccc1 [PP, pyrvinium pamoate]
## Result 86.8

## Task Note down Mean Max % I recorded for COc1ccc(C(CC(=O)N2CCCC2)c2c(OC)cc(OC)c3c(-c4ccccc4)cc(=O)oc23)cc1 (centres unmarked)
## Result 78.7

## Task Note down Mean Max % I recorded for CC(=O)O[C@H]1C(=O)[C@@]2(C)[C@H]([C@H](OC(=O)c3ccccc3)[C@]3(O)C[C@H](OC(=O)[C@H](O)[C@@H](NC(=O)c4ccccc4)c4ccccc4)C(C)=C1C3(C)C)[C@]1(OC(C)=O)CO[C@@H]1C[C@@H]2O
## Result 78.3

* * *

molecular target: VEGF DNA binding to HuR (Homo sapiens, UniProt Q15717); experiment: Inhibition of VEGF DNA binding to HuR; conditions: replicate n1
Give measured Max % I, n1 for each item. Keep answers brief.

## Task Give the observed Max % I, n1 of Cc1occ2c1C(=O)c1c(O)ccc(O)c1C2 for VEGF DNA binding to HuR (Homo sapiens, UniProt Q15717).
## Result 100.0%

## Task Give the observed Max % I, n1 of COc1ccc(C(CC(=O)N2CCCC2)c2c(OC)cc(OC)c3c(-c4ccccc4)cc(=O)oc23)cc1 (stereo not shown) for VEGF DNA binding to HuR (Homo sapiens, UniProt Q15717).
## Result 85.6%

## Task Give the observed Max % I, n1 of Cc1cc(/C=C/c2ccc3cc(N(C)C)ccc3[n+]2C)c(C)n1-c1ccccc1 [PP, pyrvinium pamoate] for VEGF DNA binding to HuR (Homo sapiens, UniProt Q15717).
## Result 87.2%

## Task Give the observed Max % I, n1 of Cc1cccc2c3c(ccc12)C1=C(C(=O)C3=O)[C@@H](C)CO1 for VEGF DNA binding to HuR (Homo sapiens, UniProt Q15717).
## Result 86.5%

* * *

molecular target: COX2 DNA binding to HuR (Homo sapiens, UniProt Q15717); assay: Inhibition of COX2 DNA binding to HuR; details: replicate n2, read-out: IC50, n2
Sequence (Q15717 whole entry): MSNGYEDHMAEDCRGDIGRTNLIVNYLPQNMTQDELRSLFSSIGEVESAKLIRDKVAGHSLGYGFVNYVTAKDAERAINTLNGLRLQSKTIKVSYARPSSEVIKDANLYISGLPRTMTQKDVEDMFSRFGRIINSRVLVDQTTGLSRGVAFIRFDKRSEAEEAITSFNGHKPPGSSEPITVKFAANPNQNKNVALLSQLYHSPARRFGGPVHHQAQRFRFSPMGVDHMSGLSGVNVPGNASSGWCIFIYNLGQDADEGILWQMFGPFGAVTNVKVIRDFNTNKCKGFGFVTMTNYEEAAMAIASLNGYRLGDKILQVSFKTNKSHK
Give measured IC50 for each item. Keep answers brief.
Your answer should be a plain number; it is taken to be in nM.

## Task Note down IC50 recorded for Cc1cc(/C=C/c2ccc3cc(N(C)C)ccc3[n+]2C)c(C)n1-c1ccccc1 [PP, pyrvinium pamoate]
## Result 115

## Task Note down IC50 recorded for CC(=O)O[C@H]1C(=O)[C@@]2(C)[C@H]([C@H](OC(=O)c3ccccc3)[C@]3(O)C[C@H](OC(=O)[C@H](O)[C@@H](NC(=O)c4ccccc4)c4ccccc4)C(C)=C1C3(C)C)[C@]1(OC(C)=O)CO[C@@H]1C[C@@H]2O
## Result 3910

## Task Note down IC50 recorded for COc1ccc(C(CC(=O)N2CCCC2)c2c(OC)cc(OC)c3c(-c4ccccc4)cc(=O)oc23)cc1 (stereo not shown)
## Result 767

## Task Note down IC50 recorded for Cc1occ2c1C(=O)c1c(O)ccc(O)c1C2
## Result 32

* * *

Give measured pIC50 for each item. Keep answers brief.
molecular target: COX2 DNA binding to HuR (Homo sapiens); experiment: Inhibition of COX2 DNA binding to HuR; settings: mean of n1 and n2, read-out: Mean IC50
When answering, recall that pIC50 equals minus log10 of the concentration in mol/L, and write that number alone.

## Task Note down pIC50 recorded for Cc1occ2c1C(=O)c1c(O)ccc(O)c1C2 [MS444]
## Result 7.48

## Task Note down pIC50 recorded for CC(=O)O[C@H]1C(=O)[C@@]2(C)[C@H]([C@H](OC(=O)c3ccccc3)[C@]3(O)C[C@H](OC(=O)[C@H](O)[C@@H](NC(=O)c4ccccc4)c4ccccc4)C(C)=C1C3(C)C)[C@]1(OC(C)=O)CO[C@@H]1C[C@@H]2O [Paclitaxel]
## Result 5.53

## Task Note down pIC50 recorded for Cc1cc(/C=C/c2ccc3cc(N(C)C)ccc3[n+]2C)c(C)n1-c1ccccc1 [PP, pyrvinium pamoate]
## Result 6.70

## Task Note down pIC50 recorded for Cc1cccc2c3c(ccc12)C1=C(C(=O)C3=O)[C@@H](C)CO1 [DHTS]
## Result 6.22

## Task Note down pIC50 recorded for COc1ccc(C(CC(=O)N2CCCC2)c2c(OC)cc(OC)c3c(-c4ccccc4)cc(=O)oc23)cc1 (stereo not shown) [CMLD2]
## Result 6.17

* * *

Test system: Panc-1
Assay: 5 day viability assay (Pico Green), Panc-1
Type: cell-based
Conditions: Homo sapiens, 120 h
Protocol: The efficacy of pyrvinium pamoate was determined in a panel of PDA cell lines.
Result Type: pIC50
When answering, recall that pIC50 equals minus log10 of the concentration in mol/L, and write that number alone.

## Task Note down pIC50 recorded for Cc1cc(/C=C/c2ccc3cc(N(C)C)ccc3[n+]2C)c(C)n1-c1ccccc1 [PP, pyrvinium pamoate]
## Result 7.04

* * *

biological target: UniProtKB Q15717; assay: Inhibition of VEGF DNA binding to HuR; settings: replicate n2
Give measured Max % I, n2 for each item. Keep answers brief.
Your answer should be a plain number; it is taken to be in %.

## Task Note down Max % I, n2 recorded for Cc1cc(/C=C/c2ccc3cc(N(C)C)ccc3[n+]2C)c(C)n1-c1ccccc1 [PP, pyrvinium pamoate]
## Result 86.5

## Task Note down Max % I, n2 recorded for Cc1cccc2c3c(ccc12)C1=C(C(=O)C3=O)[C@@H](C)CO1
## Result 99.2

## Task Note down Max % I, n2 recorded for Cc1occ2c1C(=O)c1c(O)ccc(O)c1C2
## Result 99.5

## Task Note down Max % I, n2 recorded for COc1ccc(C(CC(=O)N2CCCC2)c2c(OC)cc(OC)c3c(-c4ccccc4)cc(=O)oc23)cc1 (centres unmarked)
## Result 71.9

## Task Note down Max % I, n2 recorded for CC(=O)O[C@H]1C(=O)[C@@]2(C)[C@H]([C@H](OC(=O)c3ccccc3)[C@]3(O)C[C@H](OC(=O)[C@H](O)[C@@H](NC(=O)c4ccccc4)c4ccccc4)C(C)=C1C3(C)C)[C@]1(OC(C)=O)CO[C@@H]1C[C@@H]2O
## Result 74.9

* * *

Give measured Mean Max % I for each item. Keep answers brief.
biological target: COX2 DNA binding to HuR (Homo sapiens, UniProt Q15717); experiment: Inhibition of COX2 DNA binding to HuR; conditions: mean of n1 and n2
Your answer should be a plain number; it is taken to be in %.

## Task Note down Mean Max % I recorded for CC(=O)O[C@H]1C(=O)[C@@]2(C)[C@H]([C@H](OC(=O)c3ccccc3)[C@]3(O)C[C@H](OC(=O)[C@H](O)[C@@H](NC(=O)c4ccccc4)c4ccccc4)C(C)=C1C3(C)C)[C@]1(OC(C)=O)CO[C@@H]1C[C@@H]2O
## Result 83.8

## Task Note down Mean Max % I recorded for Cc1cc(/C=C/c2ccc3cc(N(C)C)ccc3[n+]2C)c(C)n1-c1ccccc1 [PP, pyrvinium pamoate]
## Result 89.3

## Task Note down Mean Max % I recorded for Cc1occ2c1C(=O)c1c(O)ccc(O)c1C2
## Result 100.0

## Task Note down Mean Max % I recorded for COc1ccc(C(CC(=O)N2CCCC2)c2c(OC)cc(OC)c3c(-c4ccccc4)cc(=O)oc23)cc1 (centres unmarked)
## Result 81.6

## Task Note down Mean Max % I recorded for Cc1cccc2c3c(ccc12)C1=C(C(=O)C3=O)[C@@H](C)CO1
## Result 94.0
